Target or test system: Gonadotropin-releasing hormone receptor (Homo sapiens)
Method summary: Human gonadotropin-releasing hormone receptor (GnRHR) small molecule agonists, calcium flux assay in GnRHR-HEK293 cells (AID 1920063); further: on the % scale 0 is the no-effect control and ±100 the full control effect; nearly all actives have a fitted effect of over 35% in size
Experimental conditions: calcium flux fluorescence, agonist mode; series mostly up to 57.6 µM
Activity calls are given as the source filed them. The call rests on the fitted dose curve.
Readout type: activity change

Recorded activity change, per entry:
1. CCN1CCCC1CN (stereo not drawn)
inactive
2. CC(C)c1ccc(C(=O)N=C(N)N)cc1S(C)(=O)=O
inactive
3. CCn1cc(C(=O)O)c(=O)c2cc(F)c(N3CCNCC3)cc21
inactive
4. C=C(C)c1ccccc1
inactive
5. OCCCCCCO
inactive

Give one value of activity change per listed molecule.
1. C=C(C)c1cccc(C(C)(C)N=C=O)c1
2. Cc1cc(S(=O)(=O)O)c(N)cc1Cl
3. CCOc1nc(F)cc2nc(S(=O)(=O)Nc3c(Cl)cccc3C(=O)OC)nn12

1. inactive
2. inactive
3. inactive

---

Method summary: Nuclear factor erythroid 2-related factor 2/antioxidant responsive element (Nrf2/ARE) small molecule agonists: luciferase reporter gene qHTS assay in human keratinocytes (AID 1919969); further: nearly all actives have a fitted effect of over 35% in size
Experimental conditions: KeratinoSens HaCaT ARE-luciferase, luminescence, 24 h; series mostly up to 92.4 µM
Inconclusive results are not listed. Active and inactive are the calls of the source. Calls come from the whole dose curve.
Respond only with the outcome that fits, drawn from Yes (active), No (inactive)

1) CCOC(=O)C1=NN(c2ccc(Cl)cc2Cl)C(C)(C(=O)OCC)C1 (stereo not drawn)
No
2) Clc1ccnc(Cl)n1
Yes
3) COc1ccc2nc(NC(=O)Nc3ccccc3)sc2c1
Yes
4) O=C(CN1CCN(Cc2ccc3c(c2)OCO3)CC1)N1c2ccccc2Sc2ccccc21
No
5) O=C(CCc1ccc(O)cc1)c1c(O)cc(O)cc1O
Yes
6) CCCCCC#CC(=O)OC
No
7) O=C1c2ccccc2C(=O)N1CCl
No
8) CC(C)(C)NCC(O)c1cc(O)cc(O)c1 (stereo not drawn)
No
9) CCCCCCCC/C=C\CCCCCCCCN
No
10) Clc1nc(C(Cl)(Cl)Cl)c(Cl)c(Cl)c1Cl
Yes

Record request — test call for CCOCCn1c(C2CCN(CCc3ccc(C(C)(C)C(=O)O)cc3)CC2)nc2ccccc21
No

Another compound to look at: CC[C@@]1(O)C(=O)OCc2c1cc1n(c2=O)Cc2c-1nc1ccccc1c2/C=N/OC(C)(C)C
No

Another compound to look at: CCCc1ccc(O)c(OC)c1
No

---

Method summary: Nuclear factor erythroid 2-related factor 2/antioxidant responsive element (Nrf2/ARE) small molecule agonists: qHTS cell viability counter screen in human keratinocytes (AID 1919968); further: on the % scale 0 is the no-effect control and ±100 the full control effect; nearly all actives have a fitted effect of over 55% in size
Experimental conditions: KeratinoSens HaCaT ARE cells viability, CellTiter-Fluor, 24 h; series mostly up to 92.4 µM
Description: U.S. Tox21 Program National Center for Advancing Translational Sciences [NCATS] Division of Preclinical Innovation [DPI] U.S. Environmental Protection Agency [EPA] National Institutes of Environmental Health Sciences [NIEHS] National Toxicology Program [NTP] U.S. Food and Drug Administration [FDA] […] The activation of the report gene under culture conditions can be detected by ONE-Glo Luciferase Assay System (Promega, Madison, WI). […]
Records with an inconclusive call do not appear. Calls of active or inactive are those of the source. The call rests on the fitted dose curve; in most records, active means well fitted cell-killing curve with a large enough effect in the repeat runs; inconclusive means weak or mixed curves, or effect the other way; inactive means flat fitted curve, though single readings scatter.
For each of the compounds below, state its activity change, negative = cytotoxicity.

1) [O]=[Mo](=[O])=[O]
1.36% [at 19 µM] (inactive)
2) CCCCCCCCCCCCCCN(C)C
2.19% [at 19 µM] (inactive)
3) [O]=[Bi]
4.16% [at 8.39 µM] (inactive)
4) O=C(Nc1cccc(C2=NCCN2)c1)Nc1cccc(C2=NCCN2)c1
19.9% [at 19 µM] (inactive)
5) CC(C)Cn1cnc2c(N)nc3ccccc3c21
-5.63% [at 19 µM] (inactive)
6) Oc1cn2c(n1)Nc1ccc(Cl)c(Cl)c1C2
-5.95% [at 19 µM] (inactive)
7) O=S(O)(O)=S
-0.897% [at 8.39 µM] (inactive)
8) Nc1ccc(S(=O)(=O)Nc2ccnn2-c2ccccc2)cc1
8.64% [at 19 µM] (inactive)

Give one value of activity change, negative = cytotoxicity per listed compound.
1. CCN[C@@H]1C[C@H](N)[C@@H](OC2OC(CN)=CCC2N)[C@H](O)[C@H]1O[C@H]1OC[C@](C)(O)[C@H](NC)[C@H]1O (some centres not stated)
2. CC(NN)c1ccccc1 (configuration not stated)
3. CCCCNc1ccc(NCCCC)c2c1C(=O)c1ccccc1C2=O

["-5.32% [at 0.349 µM] (inactive)", "-0.107% [at 19 µM] (inactive)", "-4.75% [at 19 µM] (inactive)"]

Give one value of activity change, negative = cytotoxicity per listed compound.
1. CCCCCCCCCCCCCCCCCl
2. O=C1c2ccccc2C(=O)c2cc(Cl)ccc21
3. CCn1cc(C(=O)O)c(=O)c2cnc(N3CCCC3)nc21

["-5.35% [at 19 µM] (inactive)", "-4.18% [at 8.39 µM] (inactive)", "-0.789% [at 8.39 µM] (inactive)"]

---

Method summary: Nuclear factor erythroid 2-related factor 2/antioxidant responsive element (Nrf2/ARE) small molecule agonists: luciferase reporter gene qHTS assay in human keratinocytes (AID 1919969); further: nearly all actives have a fitted effect of over 35% in size
Experimental conditions: KeratinoSens HaCaT ARE-luciferase, luminescence, 24 h; series mostly up to 92.4 µM
Records with an inconclusive call do not appear. Active and inactive are the calls of the source. Calls come from the whole dose curve.
Readout type: outcome

Recorded outcome, per entry:
1) CN(C)CCc1c[nH]c2ccc(C[C@H]3COC(=O)N3)cc12
inactive
2) Nc1c(N=Nc2ccc(-c3ccc(N=Nc4cc(S(=O)(=O)O)c5ccccc5c4N)cc3)cc2)cc(S(=O)(=O)O)c2ccccc12
inactive
3) CN(C)CCN1CCOCC1
inactive
4) C/C=C(/C(=C/C)c1ccc(OC(C)=O)cc1)c1ccc(OC(C)=O)cc1
inactive
5) CC(C)(C)C(=O)O
inactive

Give one value of outcome per listed compound.
1. Cc1cc(N)c2cc(NC(=O)Nc3ccc4nc(C)cc(N)c4c3)ccc2n1
2. CC(N)CCCC(C)(C)O (stereo not drawn)
3. CCCCCCCC1CCCC1=O (stereo not drawn)
4. O=C(OCc1ccccc1)C(=O)OCc1ccccc1
5. CC(C)(C)NCCNC(C)(C)C

1. inactive
2. inactive
3. inactive
4. inactive
5. inactive

---

Target or test system: 5-hydroxytryptamine receptor 2A (Homo sapiens) (UniProt P28223)
Sequence (P28223 whole entry, looked up): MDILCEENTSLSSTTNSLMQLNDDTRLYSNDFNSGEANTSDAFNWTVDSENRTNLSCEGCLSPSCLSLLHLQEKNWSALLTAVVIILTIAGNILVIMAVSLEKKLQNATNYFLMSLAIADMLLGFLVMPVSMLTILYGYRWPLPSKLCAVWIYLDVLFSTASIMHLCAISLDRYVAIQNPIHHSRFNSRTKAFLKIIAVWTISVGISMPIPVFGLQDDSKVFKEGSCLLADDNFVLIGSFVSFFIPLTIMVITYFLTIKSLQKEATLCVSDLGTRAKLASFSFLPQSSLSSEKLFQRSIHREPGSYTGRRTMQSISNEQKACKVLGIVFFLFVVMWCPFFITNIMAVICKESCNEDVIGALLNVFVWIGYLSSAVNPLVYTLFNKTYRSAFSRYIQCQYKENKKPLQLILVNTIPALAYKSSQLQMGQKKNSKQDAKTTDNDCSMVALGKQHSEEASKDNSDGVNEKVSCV
Method summary: 5-hydroxytryptamine receptor 2A (HTR2A) small molecule agonists, cell-based qHTS assay (AID 1963587); further: on the % scale 0 is the no-effect control and ±100 the full control effect; nearly all actives have a fitted effect of over 30% in size
Experimental conditions: HTR2A-CHO cells, calcium flux fluorescence, agonist mode; series mostly up to 76.8 µM
Results filed as inconclusive are left out. Calls of active or inactive are those of the source. The call rests on the fitted dose curve.
Readout type: activation

Recorded activation, per entry:
1) CO[Si](C)(OC)c1ccccc1
inactive
2) CC(=O)c1cnccn1
inactive
3) CC1=CCC(=C(C)C)CC1
inactive
4) COc1cc2c(cc1OC)-c1cc3ccc(OC)c(OC)c3c[n+]1CC2
inactive
5) CCCCS(=O)(=O)N[C@@H](Cc1ccc(OCCCCC2CCNCC2)cc1)C(=O)O
inactive

Give one value of activation per listed compound.
1. Cc1cccc(C)c1NC(=O)c1ccc(N)cc1
2. C[C@H](CN1CCCC1)C(=O)c1ccc(C(F)(F)F)cc1
3. N[C@@H](COP(=O)(O)O)C(=O)O

["inactive", "inactive", "-9.17% [at 15.9 µM] (inactive)"]

Give one value of activation per listed compound.
1. O=C(CCCCCCCCC#CI)Oc1ccccc1
2. O=C(O)c1cccc(N(Cc2cccnc2)c2ccc(OC(F)F)c(OC(F)F)c2)c1

1. inactive
2. inactive

Give one value of activation per listed compound.
1. CC(C)C(=O)OCc1ccccc1
2. C=CCSSCCC

1. inactive
2. inactive

Kindly state the measured activation obtained for Nc1cccc2c(=O)[nH][nH]c(=O)c12 with 5-hydroxytryptamine receptor 2A (Homo sapiens) (UniProt P28223).
inactive

---

Target or test system: D(2) dopamine receptor (Homo sapiens)
Method summary: Dopamine D2 receptor (DRD2) small molecule antagonists, cell-based qHTS assay (AID 1963595); further: on the % scale 0 is the no-effect control and ±100 the full control effect
Experimental conditions: HEK293-DRD2 cAMP HTRF antagonist mode; series mostly up to 92.4 µM
Records with an inconclusive call do not appear. Activity calls are given as the source filed them. Calls follow the shape of the dose curve; as a rule, active = well fitted inhibition curve with a large enough effect in the signal ratio in the repeat runs, with a control signal flat; inconclusive = weak or mixed curves, or effect the other way; inactive = flat fitted curve, though single readings scatter; the % refers to the signal ratio.
Readout type: activity change, negative = inhibition

1) OCCCc1cccnc1
inactive
2) CC(=O)c1ccc2ccc3ccccc3c2c1
inactive
3) C=C1C(CCl)(CCl)C2(Cl)C(Cl)C(Cl)C1(Cl)C2(Cl)Cl (stereo not drawn)
inactive
4) Cc1c[nH]c2ccccc12
inactive
5) CC(C)(c1ccc(Oc2ccc3c(c2)C(=O)OC3=O)cc1)c1ccc(Oc2ccc3c(c2)C(=O)OC3=O)cc1
inactive

Give one value of activity change, negative = inhibition per listed compound.
1. CO[Si](CCCn1c(=O)n(CCC[Si](OC)(OC)OC)c(=O)n(CCC[Si](OC)(OC)OC)c1=O)(OC)OC
2. CCCCCCCCCCCCCCCCCCO
3. C/C=C(\C)C=O
4. Oc1ccc(Nc2ccccc2)cc1
5. C#CC(C)(CC)OC(=O)c1ccccc1C(=O)O (stereo not drawn)
6. CC(C)C[C@H](NC(=O)OCC1c2ccccc2-c2ccccc21)C(=O)O
7. Cc1ccc(N)nc1
8. Brc1ccccn1

1. inactive
2. inactive
3. inactive
4. inactive
5. inactive
6. inactive
7. inactive
8. inactive
